Tested on: P388
Assay: Cytotoxicity against mouse lymphocytic leukemia P388 cell line
Format: functional
Labelling field: enter yes (1) if recorded Cytotoxicity is less than 40 ng/mL. Enter no (0) if it equals or exceeds that cut-off.

# example entries with known answers
{"compound": "CCN(CC)CCO[C@H]1C[C@H]2OC[C@@]2(OC(C)=O)[C@H]2[C@H](OC(=O)c3ccccc3)[C@]3(O)C[C@H](OC(=O)[C@H](O)[C@@H](NC(=O)c4ccccc4)c4ccccc4)C(C)=C([C@@H](OC(C)=O)[C@H](O)[C@]12C)C3(C)C", "classification": "no (0)"}
{"compound": "CC(=O)O[C@@H]1C2=C(C)[C@@H](OC(=O)[C@H](O)[C@@H](NC(=O)c3ccccc3)c3ccccc3)C[C@@](O)([C@@H](OC(=O)c3ccccc3)[C@@H]3[C@]4(OC(C)=O)CO[C@@H]4C[C@H](OCC(O)CO)[C@@]3(C)[C@H]1O)C2(C)C (some centres undefined)", "classification": "no (0)"}

I'd appreciate it if you could check whether `CO[C@H]1C[C@H]2OC[C@@]2(OC(C)=O)[C@H]2[C@H](OC(=O)c3ccccc3)[C@]3(O)C[C@H](OC(=O)[C@H](O)[C@@H](NC(=O)c4ccccc4)c4ccccc4)C(C)=C([C@@H](OC(C)=O)[C@H](O)[C@]12C)C3(C)C` has Cytotoxicity smaller than 40 ng/mL. yes (1)

Below 40 ng/mL on Cytotoxicity? Entry `CC(=O)O[C@@H]1C2=C(C)[C@@H](OC(=O)[C@H](O)[C@@H](NC(=O)c3ccccc3)c3ccccc3)C[C@@](O)([C@@H](OC(=O)c3ccccc3)[C@@H]3[C@]4(OC(C)=O)CO[C@@H]4C[C@@H]4OC(C)(C)O[C@@H]1[C@]43C)C2(C)C` no (0)

Hello, I'm reviewing records and need to know if Cytotoxicity of `CC(=O)O[C@@H]1C2=C(C)[C@@H](OC(=O)[C@H](O)[C@@H](NC(=O)c3ccccc3)c3ccccc3)C[C@@](O)([C@@H](OC(=O)c3ccccc3)[C@@H]3[C@]4(O)CO[C@@H]4C[C@H](O)[C@@]3(C)[C@H]1O)C2(C)C` is below 40 ng/mL. Could you check? no (0)

Does this compound meet the criterion Cytotoxicity < 40 ng/mL? `CO[C@H]1C[C@H]2OC[C@@]2(OC(C)=O)[C@H]2[C@H](OC(=O)c3ccccc3)[C@]3(O)C[C@H](OC(=O)[C@H](O)[C@@H](NC(=O)OC(C)(C)C)c4ccccc4)C(C)=C([C@@H](OC(C)=O)[C@H](O)[C@]12C)C3(C)C` yes (1)

Record CC(=O)O[C@@H]1C2=C(C)[C@@H](OC(=O)[C@H](O)[C@@H](NC(=O)c3ccccc3)c3ccccc3)C[C@@](O)([C@@H](OC(=O)c3ccccc3)[C@@H]3[C@]4(OC(C)=O)CO[C@@H]4C[C@H](O)[C@@]3(C)[C@H]1O)C2(C)C (stereo in doubt; 2) : is its Cytotoxicity strictly below 40 ng/mL? no (0)

Item CC(=O)O[C@@H]1C2=C(C)[C@@H](OC(=O)[C@H](O)[C@@H](NC(=O)c3ccccc3)c3ccccc3)C[C@@](O)([C@@H](OC(=O)c3ccccc3)[C@@H]3[C@]4(OC(C)=O)CO[C@@H]4C[C@H](O)[C@@]3(C)[C@H]1O)C2(C)C (stereo in doubt; 14a) : Cytotoxicity beneath 40 ng/mL, strictly? no (0)

---

System: B16-F10
Assay: Cytotoxicity against mouse melanoma B16F10 cell line
Assay type: functional
Listing of recorded Cytotoxicity by entry.
Unit ng/mL implied. Number only.

Examples with their reported Cytotoxicity follow.
{"compound": "CC(=O)O[C@@H]1C2=C(C)[C@@H](OC(=O)[C@H](O)[C@@H](NC(=O)c3ccccc3)c3ccccc3)C[C@@](O)([C@@H](OC(=O)c3ccccc3)[C@@H]3[C@]4(OC(C)=O)CO[C@@H]4C[C@H](O)[C@@]3(C)[C@H]1O)C2(C)C (stereo in doubt; 2)", "Cytotoxicity (ng/mL)": 25}
{"compound": "CC(=O)OCCO[C@H]1C[C@H]2OC[C@@]2(OC(C)=O)[C@H]2[C@H](OC(=O)c3ccccc3)[C@]3(O)C[C@H](OC(=O)[C@H](O)[C@@H](NC(=O)c4ccccc4)c4ccccc4)C(C)=C([C@@H](OC(C)=O)[C@H](O)[C@]12C)C3(C)C", "Cytotoxicity (ng/mL)": 43}
{"compound": "CO[C@H]1C[C@H]2OC[C@@]2(OC(C)=O)[C@H]2[C@H](OC(=O)c3ccccc3)[C@]3(O)C[C@H](OC(=O)[C@H](O)[C@@H](NC(=O)c4ccccc4)c4ccccc4)C(C)=C([C@@H](OC(C)=O)[C@H](O)[C@]12C)C3(C)C", "Cytotoxicity (ng/mL)": 1.5}

Request the reported Cytotoxicity associated with CCC1O[C@H]2C[C@H]3OC[C@@]3(OC(C)=O)[C@H]3[C@H](OC(=O)c4ccccc4)[C@]4(O)C[C@H](OC(=O)[C@H](O)[C@@H](NC(=O)c5ccccc5)c5ccccc5)C(C)=C([C@@H](OC(C)=O)[C@H](O1)[C@]23C)C4(C)C (stereo partly specified) 15

Quick one: Cytotoxicity for CC(=O)O[C@@H]1C2=C(C)[C@@H](OC(=O)[C@H](O)[C@@H](NC(=O)c3ccccc3)c3ccccc3)C[C@@](O)([C@@H](OC(=O)c3ccccc3)[C@@H]3[C@]4(OC(C)=O)CO[C@@H]4C[C@H](O)[C@@]3(C)[C@H]1O)C2(C)C (stereo in doubt; 14a) ? 39

---

// reported Cytotoxicity for each item listed
Test system: P388
Test: Cytotoxicity against mouse lymphocytic leukemia P388 cell line
Type: functional
Note: unit ng/mL is implicit; provide only the numeric part.

Known results for compounds:
{"compound": "CO[C@H]1[C@H](OC(C)=O)C2=C(C)[C@@H](OC(=O)[C@H](O)[C@@H](NC(=O)c3ccccc3)c3ccccc3)C[C@@](O)([C@@H](OC(=O)c3ccccc3)[C@@H]3[C@]4(OC(C)=O)CO[C@@H]4C[C@H](O)[C@]31C)C2(C)C", "Cytotoxicity (ng/mL)": 7.8}
{"compound": "CC(=O)O[C@@H]1C2=C(C)[C@@H](OC(=O)[C@H](O)[C@@H](NC(=O)c3ccccc3)c3ccccc3)C[C@@](O)([C@@H](OC(=O)c3ccccc3)[C@@H]3[C@]4(OC(C)=O)CO[C@@H]4C[C@H](OC(C)=O)[C@@]3(C)[C@H]1OC(C)=O)C2(C)C", "Cytotoxicity (ng/mL)": 22}
{"compound": "CC(=O)O[C@H]1C(=O)[C@@]2(C)[C@H]([C@H](OC(=O)c3ccccc3)[C@]3(O)C[C@H](OC(=O)[C@H](O)[C@@H](NC(=O)c4ccccc4)c4ccccc4)C(C)=C1C3(C)C)[C@]1(OC(C)=O)CO[C@@H]1C[C@@H]2O", "Cytotoxicity (ng/mL)": 11}

Turning now to a further compound:
Any idea what Cytotoxicity was measured for CCC1O[C@H]2C[C@H]3OC[C@@]3(OC(C)=O)[C@H]3[C@H](OC(=O)c4ccccc4)[C@]4(O)C[C@H](OC(=O)[C@H](O)[C@@H](NC(=O)c5ccccc5)c5ccccc5)C(C)=C([C@@H](OC(C)=O)[C@H](O1)[C@]23C)C4(C)C (some centres undefined) ? 22

---

System: B16-F10
Assay: Cytotoxicity against mouse melanoma B16F10 cell line
Assay type: functional
log10 Cytotoxicity reference
Values reflect log10 of reported Cytotoxicity (ng/mL).

Recorded log10 Cytotoxicity, per entry:
{"smiles-repr": "CC(=O)O[C@@H]1C2=C(C)[C@@H](OC(=O)[C@H](O)[C@@H](NC(=O)c3ccccc3)c3ccccc3)C[C@@](O)([C@@H](OC(=O)c3ccccc3)[C@@H]3[C@]4(OC(C)=O)CO[C@@H]4C[C@H](OCCO)[C@@]3(C)[C@H]1O)C2(C)C", "subject-of-test": "B16-F10", "measured-result": 2.08}
{"smiles-repr": "CC(=O)O[C@@H]1C2=C(C)[C@@H](OC(=O)[C@H](O)[C@@H](NC(=O)c3ccccc3)c3ccccc3)C[C@@](O)([C@@H](OC(=O)c3ccccc3)[C@@H]3[C@]4(OC(C)=O)CO[C@@H]4C[C@@H]4OC(C)(C)O[C@@H]1[C@]43C)C2(C)C", "subject-of-test": "B16-F10", "measured-result": 1.53}
{"smiles-repr": "CC(=O)O[C@@]12CO[C@@H]1C[C@H](O)[C@]1(C)[C@@H]2[C@H](OC(=O)c2ccccc2)[C@]2(O)C[C@H](OC(=O)[C@H](O)[C@@H](NC(=O)OC(C)(C)C)c3ccccc3)C(C)=C([C@@H](O)[C@@H]1O)C2(C)C", "subject-of-test": "B16-F10", "measured-result": -0.40}

Which log10 Cytotoxicity is listed for `CC(=O)O[C@H]1C(=O)[C@@]2(C)[C@H]([C@H](OC(=O)c3ccccc3)[C@]3(O)C[C@H](OC(=O)[C@H](O)[C@@H](NC(=O)c4ccccc4)c4ccccc4)C(C)=C1C3(C)C)[C@]1(OC(C)=O)CO[C@@H]1C[C@@H]2O` ? 0.80

Which log10 Cytotoxicity value belongs to `C=CCO[C@H]1C[C@H]2OC[C@@]2(OC(C)=O)[C@H]2[C@H](OC(=O)c3ccccc3)[C@]3(O)C[C@H](OC(=O)[C@H](O)[C@@H](NC(=O)c4ccccc4)c4ccccc4)C(C)=C([C@@H](OC(C)=O)[C@H](O)[C@]12C)C3(C)C` ? 0.43

Can you look up the measured log10 Cytotoxicity of `CO[C@H]1C[C@H]2OC[C@@]2(OC(C)=O)[C@H]2[C@H](OC(=O)c3ccccc3)[C@]3(O)C[C@H](OC(=O)[C@H](O)[C@@H](NC(=O)OC(C)(C)C)c4ccccc4)C(C)=C([C@@H](OC(C)=O)[C@H](O)[C@]12C)C3(C)C` for me? -0.70

I'd like to know its log10 Cytotoxicity. The compound in question is `CO[C@H]1[C@H](OC(C)=O)C2=C(C)[C@@H](OC(=O)[C@H](O)[C@@H](NC(=O)c3ccccc3)c3ccccc3)C[C@@](O)([C@@H](OC(=O)c3ccccc3)[C@@H]3[C@]4(OC(C)=O)CO[C@@H]4C[C@H](O)[C@]31C)C2(C)C` 0.68
